For each of the binders below, state its EC50.
# SYSTEM_TESTED: recombinant human IL-15 (Prospec cat no. CYT230) (human, UniProt P40933 49-162)
# Sequence (P40933 other isoform, or with tags, fused parts or gaps): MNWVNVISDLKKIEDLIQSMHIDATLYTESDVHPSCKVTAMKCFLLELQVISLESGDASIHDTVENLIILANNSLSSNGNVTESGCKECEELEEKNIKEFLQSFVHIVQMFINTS
# EXPERIMENT: ELISA, plate-bound human IL-15; printed as BC50 (half-maximal binding concentration)
Numbers only, in nM.

// EC50 lookup, binder = huB-E29-31 (antibody, human IgG1, kappa, V domains shown, Humanized B-E29 variant; human IgG1 (G1m3) / kappa (Km3), produced in CHO cells; also called huVH20/huVL6) VH: EVRLMASGGGLVQPGGSLRLSCAASEFTFSNYAMSWVRQAPGKGLEWVATISRGGDYTYYPDSVKGRFTISRDNSKNTLYLQMNSLRAEDTAVYYCARRVSFITGGYAMDYWGQGTLVTVSS VL: DVVMTQSPLSLPVTLGQPASISCRSSQSIVDITGNTYLEWFQQRPGQSPRRLIYKVFNRFSGVPDRFSGSGSGTDFTLKISRVEAEDVGVYYCFQESFVPYTFGQGTKLEIKR , result: 3.51

Continuing:
// EC50 lookup, binder = huB-E29-18 (antibody, human IgG1, kappa, V domains shown, Humanized B-E29 variant; human IgG1 (G1m3) / kappa (Km3), produced in CHO cells; also called huVH1/huVL4) VH: EVRLMASGGGLVQPGGSLRLSCAASEFTFSNYAMSWVRQAPGKGLEWVATISRGGDYTYYPDSVKGRFTISRDNSKNTLYLQMNSLRAEDTAVYYCARRVSMITGGWAMDYWGQGTLVTVSS VL: DVVMTQSPLSLPVTLGQPASISCRSSQSIVDITGNTYLEWYQQRPGQSPRLLIYKVFNRFSGVPDRFSGSGSGTDFTLKISRVEAEDVGVYYCFQESFVPYTFGQGTKLEIKR , result: 0.693

Data origin, for the record: patent US20170137511A1
